# ASSAY: ABTS radical scavenging activity assessed as Trolox equivalent antioxidant capacity
# Type: physicochemical
Attribute: Activity
EXPERIMENTAL_ENDPOINT: Activity (mmol/L)

| MOLECULE | MEASURED_RESULT |
| --- | --- |
| Oc1cc(O)c2c(c1)O[C@H](c1ccc(O)c(O)c1)[C@H](O)C2 [(-)-EPICATECHIN] | 0.99 |
| O=c1c(O)c(-c2cc(O)c(O)c(O)c2)oc2cc(O)cc(O)c12 | 1.02 |
| O=c1c(O)c(-c2ccc(O)c(O)c2)oc2cc(O)cc(O)c12 | 1.14 |
| Oc1ccc(/C=C/c2cc(O)cc(O)c2)cc1 | 0.4 |
| O=C(O)c1cc(O)c(O)c(O)c1 | 1.98 |
| O=c1c(O)c(-c2ccc(O)cc2)oc2cc(O)cc(O)c12 | 0.79 |
| O=c1c(O)c(-c2ccc(O)cc2O)oc2cc(O)cc(O)c12 | 0.83 |
| COc1cc(/C=C/C(=O)O)ccc1O [FERULATE] | 0.23 |
| Oc1cc(O)c2c(c1)O[C@H](c1ccc(O)c(O)c1)[C@@H](O)C2 | 0.57 |
| O=C(O)/C=C/c1ccc(O)c(O)c1 | 1.01 |

====

Attribute: pIC50
# Tested on: Liver microsomes
# ASSAY: Antioxidant activity in Wistar rat liver microsomes assessed as inhibition of lipid peroxidation by TBA assay
# Assay type: functional, Microsome
pIC50: −log10 of the molar value.

| MOLECULE | pIC50 |
| --- | --- |
| O=C1C[C@@H](c2ccc(O)cc2)Oc2cc(O)cc(O)c21 [NARINGENIN] | 4.00 |
| Oc1cc(O)c2c(c1)O[C@H](c1ccc(O)c(O)c1)[C@H](O)C2 [(-)-EPICATECHIN] | 4.60 |
| O=c1c(O)c(-c2ccc(O)c(O)c2)oc2cc(O)cc(O)c12 [QUERCETIN] | 5.07 |
| Oc1cc(O)c2c(c1)OC(c1ccc(O)c(O)c1)C(O)C2 (stereo not drawn) [CATECHIN] | 4.29 |
| O=c1c(O)c(-c2ccc(O)cc2)oc2cc(O)cc(O)c12 [KAEMPFEROL] | 4.72 |
| O=c1cc(-c2ccc(O)cc2)oc2cc(O)cc(O)c12 [APIGENIN] | 4.00 |
| O=c1c(O)c(-c2cc(O)c(O)c(O)c2)oc2cc(O)cc(O)c12 [MYRICETIN] | 4.98 |
| O=c1c(O)c(-c2ccc(O)cc2O)oc2cc(O)cc(O)c12 [MORIN] | 4.64 |
